- Test system: Human immunodeficiency virus 1
- experiment-summary: Antiviral activity against HIV1 assessed as serum adjusted potency
- Assay type: functional, organism-based
experimental-endpoint: pEC50
Answers are plain numbers, as −log10 of the molar value.

Dear colleague, I am looking for the recorded pEC50 of the following compound: N#Cc1cc(Cl)cc(Oc2c(Br)ccc(CC(=O)Nc3ccc(S(N)(=O)=O)cc3Cl)c2F)c1 [DEPULFAVIRINE]
7.86

====

- experiment-summary: Lipophilicity, log P of the compound
- Type: physicochemical
- condition-parameters: octanol/water
Sorting guide: entries reporting logP beneath 2 go in the Criterion met pile, the rest go in the Criterion not met pile.

Worked cases, answers included:
| molecule | class-name |
| --- | --- |
| CCN1c2ncccc2C(=O)Nc2c(C)ccnc21 | Criterion not met |
| O=C1Nc2ccccc2Nc2ncccc21 | Criterion met |
| CCN1c2ccccc2N(C)C(=O)c2cccnc21 | Criterion not met |
| CCN1c2ncccc2C(=O)N(C)c2cccnc21 | Criterion met |
| CCNc1cccnc1N1CCN(C(=O)c2cc3cc(OC)ccc3[nH]2)CC1.CS(=O)(=O)O [ATEVIRDINE SULPHATE] | Criterion met |

Now, please, on to the next molecule.
Hi there! Is logP for `O=C1Nc2cccnc2Nc2ncccc21` below 2, do you know?
Criterion met

====

- measurement-target: UniProtKB Q72547
- experiment-summary: Inhibition of HIV1 reverse transcriptase
experimental-endpoint: IC50 (nM)
One number for each entry, in nM.

Solved cases below.
| compound | IC50 (nM) |
| --- | --- |
| CC1O[C@](C#CC2CC2)(C(F)(F)F)c2cc(Cl)ccc2NC1=O (some centres undefined) | 82 |
| CCOC1(c2ccccc2)c2cc(Cl)ccc2NC(=S)N1C (centres undefined) | 56 |

What reported IC50 corresponds to CC1O[C@](/C=C/C2CC2)(C(F)(F)F)c2cc(Cl)ccc2NC1=O (some centres undefined) on UniProtKB Q72547?
46

====

Exercise: for every item that follows, state its recorded half-life.
- experiment-summary: Half life in human serum at 200 mg, bid
- Format: ADME, cell-free

Batch lookup, half-life per entry.
1. Cc1cc(C#N)cc(C)c1Oc1nc(Nc2ccc(C#N)cc2)nc(N)c1Br
2. Cc1ccnc2c1NC(=O)c1cccnc1N2C1CC1

1. 41 h
2. 25 to 30 h

====

- experiment-summary: Half life in human serum at 25 mg, qd
- Format: ADME, cell-free
experimental-endpoint: half-life
A complete answer gives the number followed by the unit.

Dear colleague, I am looking for the recorded half-life of the following molecule: `Cc1cc(/C=C/C#N)cc(C)c1Nc1ccnc(Nc2ccc(C#N)cc2)n1`
50 h

====

- experiment-summary: Cmax in rat
- Assay type: ADME
- condition-parameters: in vivo
experimental-endpoint: Cmax

Dear colleague, I am looking for the recorded Cmax of the following compound: CCNc1cccnc1N1CCN(C(=O)c2cc3cc(OC)ccc3[nH]2)CC1.CS(=O)(=O)O [ATEVIRDINE SULPHATE]
4.6 to 17.4 µM

====

- measurement-target: Human immunodeficiency virus type 1 reverse transcriptase (Human immunodeficiency virus 1)
- experiment-summary: Inhibition of HIV1 3B reverse transcriptase infected in human PBMC cells after 4 days
- Assay type: cell-based
experimental-endpoint: ED50 (µM)
Give bare numbers, in µM.

| entry-smiles | numeric-value |
| --- | --- |
| CCNc1cccnc1N1CCN(Cc2cc(C)c(OC)c(C)c2)CC1 | 2 |
| CC(C)Nc1cccnc1N1CCN(C(=O)c2cc3cc(F)ccc3[nH]2)CC1 | 0.3 |
| Cc1cn([C@H]2C[C@H](N=[N+]=[N-])[C@@H](CO)O2)c(=O)[nH]c1=O | 0.07 |
| COc1ccc2[nH]c(C(=O)N3CCN(c4ncccc4NC(C)C)CC3)cc2c1 | 0.3 |
| CCNc1cccnc1N1CCN(C(=O)c2cc3ccccc3[nH]2)CC1 | 0.3 |
| CCNc1cccnc1N1CCN(C(=O)c2cc(C)c(OC)c(C)c2)CC1 | 2 |

Turning now to a further compound:
What reported ED50 corresponds to `CC(C)Nc1cccnc1N1CCN(C(=O)c2cc3ccccc3[nH]2)CC1` on Human immunodeficiency virus type 1 reverse transcriptase (Human immunodeficiency virus 1)?
0.3

====

- experiment-summary: Tmax in rat
- Format: ADME
- condition-parameters: in vivo
experimental-endpoint: Tmax

Dear colleague, I am looking for the recorded Tmax of the following compound: CCNc1cccnc1N1CCN(C(=O)c2cc3cc(OC)ccc3[nH]2)CC1.CS(=O)(=O)O [ATEVIRDINE SULPHATE]
30 to 60 min

====

- experiment-summary: Lipophilicity, log P of the compound
- Assay type: physicochemical
- condition-parameters: octanol/water
Exercise: for every item that follows, state its recorded logP.
Numbers only.

Solved cases below.
| entry-smiles | logP |
| --- | --- |
| Cc1ccnc2c1NC(=O)c1cccnc1N2 | 1.52 |
| CCNc1cccnc1N1CCN(C(=O)c2cc(C)c(OC)c(C)c2)CC1 | 3.3 |

Dear colleague, I am looking for the recorded logP of the following compound: `Cc1ccnc2c1NC(=O)c1cccnc1N2C1CC1`
2.05

====

- measurement-target: Human immunodeficiency virus type 1 reverse transcriptase (Human immunodeficiency virus 1, UniProt Q72547)
- experiment-summary: Inhibition of HIV1 reverse transcriptase derived from HIV patient plasma by LC/MS/MS analysis
experimental-endpoint: pIC50
Give bare numbers, as −log10 of the molar value.

Dear colleague, I am looking for the recorded pIC50 of the following molecule: `O=C1Nc2cccnc2Nc2ccccc21`
5.22

====

- experiment-summary: Half life in human serum at 100 mg, qd
- Type: ADME, cell-free
experimental-endpoint: half-life

Dear colleague, I am looking for the recorded half-life of the following compound: Cn1c(Cn2ccc(C(F)(F)F)c(Oc3cc(Cl)cc(C#N)c3)c2=O)n[nH]c1=O [DORAVIRINE]
11 to 15 h

====

- measurement-target: Human immunodeficiency virus type 1 reverse transcriptase (Human immunodeficiency virus 1, UniProt Q72547)
- experiment-summary: Inhibition of wild type recombinant HIV1 reverse transcriptase using poly(rA)-oligo(dT) as template/primer
experimental-endpoint: IC50 (µM)
Give bare numbers, in µM.

Dear colleague, I am looking for the recorded IC50 of the following compound: `CCNc1cccnc1N1CCN(Cc2cc(C)c(OC)c(C)c2)CC1`
20

====

- experiment-summary: Oral bioavailability in human
- Format: ADME, organism-based
- condition-parameters: in vivo
experimental-endpoint: bioavailability (%)
Give bare numbers, in %.

Dear colleague, I am looking for the recorded bioavailability of the following molecule: Cc1ccnc2c1NC(=O)c1cccnc1N2C1CC1 [NEVIRAPINE]
95
